- Test system: NCI-H2405
- experimental-protocol: relative viability (nuclei count vs DMSO), 5 days (fraction); higher = more cells survive
- measurement-conditions: first compound 0.04 µM
measurement-name: relative viability
# answer = number (no unit)

compound="Clc1ccc(Nc2nnc(Cc3ccncc3)c3ccccc23)cc1 [Vatalanib] + CS(=O)(=O)CCNCc1ccc(-c2ccc3ncnc(Nc4ccc(OCc5cccc(F)c5)c(Cl)c4)c3c2)o1 [Lapatinib] (partner 2 µM)" readout_number=1.04
compound="COc1cc(N2CCC(C(N)=O)CC2)ccc1Nc1nc(N)c(Cl)c(Nc2ccccc2S(=O)(=O)C(C)C)n1 [HG-5-88-01] + CC(=O)Nc1cccc(-n2c(=O)n(C3CC3)c(=O)c3c(Nc4ccc(I)cc4F)n(C)c(=O)c(C)c32)c1 [Trametinib] (partner 0.02 µM)" readout_number=0.676
compound="Clc1ccc(Nc2nnc(Cc3ccncc3)c3ccccc23)cc1 [Vatalanib] + COc1cc2c(Oc3ccc(NC(=O)C4(C(=O)Nc5ccc(F)cc5)CC4)cc3F)ccnc2cc1OCCCN1CCOCC1 [Foretinib] (partner 0.25 µM)" readout_number=1.04

For the next question, use this compound.
Query: Reported relative viability, compound COc1cc(N2CCC(C(N)=O)CC2)ccc1Nc1nc(N)c(Cl)c(Nc2ccccc2S(=O)(=O)C(C)C)n1 [HG-5-88-01] + Cc1cc(Nc2cc(N3CCN(C)CC3)nc(Sc3ccc(NC(=O)C4CC4)cc3)n2)n[nH]1 [Tozasertib] (partner 0.1 µM) : ____
Reply: 0.765
